Source of measurements: paper PMC11412156

Target: UniProtKB Q96DB2
Sequence (Q96DB2 1-347): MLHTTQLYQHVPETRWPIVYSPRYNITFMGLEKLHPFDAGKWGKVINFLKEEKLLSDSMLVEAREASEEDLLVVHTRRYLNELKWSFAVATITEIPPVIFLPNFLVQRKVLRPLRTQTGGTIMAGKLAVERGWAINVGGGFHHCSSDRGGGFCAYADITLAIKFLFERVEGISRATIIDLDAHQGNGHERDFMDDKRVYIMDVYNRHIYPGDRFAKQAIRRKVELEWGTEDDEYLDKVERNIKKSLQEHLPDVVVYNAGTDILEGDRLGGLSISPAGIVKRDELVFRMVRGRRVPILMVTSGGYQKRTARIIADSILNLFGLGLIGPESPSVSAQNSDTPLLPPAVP
Experiment: HDAC enzyme-based fluorogenic assay, HDAC11
Type: biochemical
MEASURED PROPERTY: pIC50
Scale for pIC50: -log10 of concentration given in mol/L; no unit attached.

- COMPOUND: "O=C(CCCCCCNC(=O)[C@H]1CCCN(C(=O)c2ccc(NC(=O)Nc3cc(F)cc(F)c3)c(F)c2)C1)NO [Compound 28j]"
  SYSTEM UNDER TEST: "UniProtKB Q96DB2"
  pIC50: 5.98

Kindly consider the entry below.
// query State the recorded pIC50 for this entry: O=C(CCCCCCNC(=O)[C@H]1CCCN(C(=O)c2ccc(NC(=O)Nc3ccc(Cl)c(F)c3)c(F)c2)C1)NO [Compound 28g]
// result 6.33

---

Target: HDAC1 (Homo sapiens, UniProt Q13547)
Sequence (Q13547 whole entry): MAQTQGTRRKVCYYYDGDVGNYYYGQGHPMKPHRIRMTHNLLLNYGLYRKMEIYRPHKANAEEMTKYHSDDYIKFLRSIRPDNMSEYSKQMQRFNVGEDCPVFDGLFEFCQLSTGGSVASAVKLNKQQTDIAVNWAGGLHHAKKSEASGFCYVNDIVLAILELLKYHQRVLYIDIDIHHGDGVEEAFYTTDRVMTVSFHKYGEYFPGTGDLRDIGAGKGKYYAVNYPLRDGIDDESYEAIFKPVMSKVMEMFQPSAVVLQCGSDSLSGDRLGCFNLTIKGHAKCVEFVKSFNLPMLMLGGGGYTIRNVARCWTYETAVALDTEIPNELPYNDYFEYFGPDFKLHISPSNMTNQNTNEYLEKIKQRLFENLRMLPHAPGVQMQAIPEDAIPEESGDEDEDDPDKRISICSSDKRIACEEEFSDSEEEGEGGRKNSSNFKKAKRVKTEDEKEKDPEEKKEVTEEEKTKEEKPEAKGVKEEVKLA
Assay: HDAC enzyme-based fluorogenic assay, HDAC1
Format: biochemical
MEASURED PROPERTY: pIC50
Scale for pIC50: -log10 of concentration given in mol/L; no unit attached.

- COMPOUND: "O=C(CCCCCCNC(=O)[C@H]1CCCN(C(=O)c2ccc(NC(=O)Nc3ccc(Cl)c(F)c3)c(F)c2)C1)NO [Compound 28g]"
  pIC50: 5.94

Kindly consider the entry below.
// query State the recorded pIC50 for this entry: O=C(CCCCCCNC(=O)[C@H]1CCCN(C(=O)c2ccc(NC(=O)Nc3cc(F)cc(F)c3)c(F)c2)C1)NO [Compound 28j]
// result 5.99

---

Assay: Pharmacokinetic study in rats
Type: in vivo, SD rats
Details: both, Sprague-Dawley, rat, plasma, iv, 10 mg/kg
Form field: Vd (one value per entry).
Answer in L, number only, no unit symbol.

- MOLECULE: "O=C(CCCCCCNC(=O)[C@H]1CCCN(C(=O)c2ccc(NC(=O)Nc3ccc(Cl)c(F)c3)c(F)c2)C1)NO [Compound 28g]"
  Vd [L]: 1.28

// query State the recorded Vd for this entry: O=C(CCCCCCNC(=O)[C@H]1CCCN(C(=O)c2ccc(NC(=O)Nc3cc(F)cc(F)c3)c(F)c2)C1)NO [Compound 28j]
// result 1.1

---

Form field: pIC50 (one value per entry).
Molecular target: HDAC11 (Homo sapiens, UniProt Q96DB2)
Sequence (Q96DB2 1-347): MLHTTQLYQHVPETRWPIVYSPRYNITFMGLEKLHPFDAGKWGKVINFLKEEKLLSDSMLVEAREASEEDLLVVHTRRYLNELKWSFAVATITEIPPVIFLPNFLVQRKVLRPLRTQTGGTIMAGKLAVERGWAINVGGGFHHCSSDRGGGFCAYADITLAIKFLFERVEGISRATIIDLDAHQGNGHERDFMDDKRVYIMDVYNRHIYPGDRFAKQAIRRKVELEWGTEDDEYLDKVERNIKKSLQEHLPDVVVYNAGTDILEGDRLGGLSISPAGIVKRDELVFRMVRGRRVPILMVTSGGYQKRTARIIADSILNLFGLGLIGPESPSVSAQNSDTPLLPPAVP
Assay: HDAC enzyme-based fluorogenic assay, HDAC11
Type: biochemical
Settings: read-out: HDAC11 IC50; mean of at least three experiments
Scale for pIC50: -log10 of concentration given in mol/L; no unit attached.

- COMPOUND: "C[C@]12CC3CC(Nc4c(Nc5ccc(C(=O)N6CCC[C@H](C(=O)NCCCCCC(=O)NO)C6)cc5)c(=O)c4=O)(C1)C[C@@](C)(C3)C2 [Compound 40c]"
  pIC50: 7.08

Kindly consider the entry below.
// query State the recorded pIC50 for this entry: CC12CC3CC(C)(C1)CC(Nc1c(Nc4ccc(C(=O)N5CCC[C@H](C(=O)NCCCCCCC(=O)NO)C5)cc4)c(=O)c1=O)(C3)C2 [Compound 40d]
// result 6.62

---

Form field: Cmax (one value per entry).
Experiment: Pharmacokinetic study in rats
Format: in vivo, SD rats
Details: both, Sprague-Dawley, rat, plasma, iv, 10 mg/kg
Answer in µM, number only, no unit symbol.

- COMPOUND: "O=C(CCCCCCNC(=O)[C@H]1CCCN(C(=O)c2ccc(NC(=O)Nc3cc(F)cc(F)c3)c(F)c2)C1)NO [Compound 28j]"
  UNIT ABBREVIATION: "µM"
  MEASURED VALUE: 8.1

// query State the recorded Cmax for this entry: O=C(CCCCCCNC(=O)[C@H]1CCCN(C(=O)c2ccc(NC(=O)Nc3ccc(Cl)c(F)c3)c(F)c2)C1)NO [Compound 28g]
// result 7.87

---

Assay: Pharmacokinetic study in rats
Format: in vivo, SD rats
Settings: both, Sprague-Dawley, rat, plasma, po, 50 mg/kg
Form field: half-life (one value per entry).
Answer in h, number only, no unit symbol.

- COMPOUND: "O=C(CCCCCCNC(=O)[C@H]1CCCN(C(=O)c2ccc(NC(=O)Nc3ccc(Cl)c(F)c3)c(F)c2)C1)NO [Compound 28g]"
  half-life [h]: 3.55

Kindly consider the entry below.
// query State the recorded half-life for this entry: O=C(CCCCCCNC(=O)[C@H]1CCCN(C(=O)c2ccc(NC(=O)Nc3cc(F)cc(F)c3)c(F)c2)C1)NO [Compound 28j]
// result 2.84

---

Form field: metabolic stability in RLM, column 45 (one value per entry).
Assay: In vitro metabolic stability in rat liver microsomes
Assay type: in vitro ADME
Settings: incubation 45 min, 37 °C, NADPH
Would you mind answering with just the numeric figure?

- COMPOUND: "C[C@]12C[C@@H]3C[C@](C)(C1)C[C@@](NC(=O)Nc1ccc(CN4CCC[C@H](C(=O)NCCCCCCC(=O)NO)C4)cc1F)(C3)C2 [Compound 16d]"
  metabolic stability in RLM, column 45: 52.13
- COMPOUND: "O=C(CCCCCCNC(=O)[C@H]1CCCN(C(=O)c2ccc(NC(=O)Nc3ccc(Cl)c(F)c3)c(F)c2)C1)NO [Compound 28g]"
  metabolic stability in RLM, column 45: 78.76

// query State the recorded metabolic stability in RLM, column 45 for this entry: O=C(CCCCCCNC(=O)[C@H]1CCCN(C(=O)c2ccc(NC(=O)Nc3cc(F)cc(F)c3)c(F)c2)C1)NO [Compound 28j]
// result 59.75

// query State the recorded metabolic stability in RLM, column 45 for this entry: CC12CC3CC(C)(C1)CC(Nc1c(Nc4ccc(CN5CCC[C@H](C(=O)NCCCCCCC(=O)NO)C5)cc4F)c(=O)c1=O)(C3)C2 [Compound 34d]
// result 66.27

---

Assay: In vitro metabolic stability in rat liver microsomes
Assay type: in vitro ADME
Conditions: incubation 60 min, 37 °C, NADPH
MEASURED PROPERTY: metabolic stability in RLM, column 60
Would you mind answering with just the numeric figure?

- MOLECULE: "O=C(CCCCCCNC(=O)[C@H]1CCCN(C(=O)c2ccc(NC(=O)Nc3ccc(Cl)c(F)c3)c(F)c2)C1)NO [Compound 28g]"
  MEASURED VALUE: 70.64
- MOLECULE: "CC12CC3CC(C)(C1)CC(Nc1c(Nc4ccc(CN5CCC[C@H](C(=O)NCCCCCCC(=O)NO)C5)cc4F)c(=O)c1=O)(C3)C2 [Compound 34d]"
  MEASURED VALUE: 50.51
- MOLECULE: "C[C@]12C[C@@H]3C[C@](C)(C1)C[C@@](NC(=O)Nc1ccc(CN4CCC[C@H](C(=O)NCCCCCCC(=O)NO)C4)cc1F)(C3)C2 [Compound 16d]"
  MEASURED VALUE: 46.62

Kindly consider the entry below.
// query State the recorded metabolic stability in RLM, column 60 for this entry: O=C(CCCCCCNC(=O)[C@H]1CCCN(C(=O)c2ccc(NC(=O)Nc3cc(F)cc(F)c3)c(F)c2)C1)NO [Compound 28j]
// result 50.47

---

Experiment: Pharmacokinetic study in rats
Format: in vivo, SD rats
Settings: both, Sprague-Dawley, rat, plasma, iv, 10 mg/kg
MEASURED PROPERTY: AUC(0-t) (µM·h)
Answer in µM·h, number only, no unit symbol.

- COMPOUND: "O=C(CCCCCCNC(=O)[C@H]1CCCN(C(=O)c2ccc(NC(=O)Nc3ccc(Cl)c(F)c3)c(F)c2)C1)NO [Compound 28g]"
  UNIT ABBREVIATION: "µM·h"
  MEASURED VALUE: 12.3

Kindly consider the entry below.
// query State the recorded AUC(0-t) for this entry: O=C(CCCCCCNC(=O)[C@H]1CCCN(C(=O)c2ccc(NC(=O)Nc3cc(F)cc(F)c3)c(F)c2)C1)NO [Compound 28j]
// result 13.8
